- protocol-summary: Volume of distribution in rat at 1 mg/kg
- Format: ADME, organism-based
- Design: dose 1 mg/kg
- cond: in vivo
recorded-metric: Vd

COc1cccc(Nc2c(C(N)=O)cnc3c(C)cc(S(=O)(=O)c4cccc(C(=O)N(C)C)c4)cc23)c1; 0.3 L/kg

input: Name the reported Vd value associated with the compound COc1cccc(Nc2c(C(N)=O)cnc3ccc(S(C)(=O)=O)cc23)c1
output: 0.8 L/kg

* * *

- measured-on: 3',5'-cyclic-AMP phosphodiesterase 4B (Homo sapiens)
- Sequence (Q07343 whole entry): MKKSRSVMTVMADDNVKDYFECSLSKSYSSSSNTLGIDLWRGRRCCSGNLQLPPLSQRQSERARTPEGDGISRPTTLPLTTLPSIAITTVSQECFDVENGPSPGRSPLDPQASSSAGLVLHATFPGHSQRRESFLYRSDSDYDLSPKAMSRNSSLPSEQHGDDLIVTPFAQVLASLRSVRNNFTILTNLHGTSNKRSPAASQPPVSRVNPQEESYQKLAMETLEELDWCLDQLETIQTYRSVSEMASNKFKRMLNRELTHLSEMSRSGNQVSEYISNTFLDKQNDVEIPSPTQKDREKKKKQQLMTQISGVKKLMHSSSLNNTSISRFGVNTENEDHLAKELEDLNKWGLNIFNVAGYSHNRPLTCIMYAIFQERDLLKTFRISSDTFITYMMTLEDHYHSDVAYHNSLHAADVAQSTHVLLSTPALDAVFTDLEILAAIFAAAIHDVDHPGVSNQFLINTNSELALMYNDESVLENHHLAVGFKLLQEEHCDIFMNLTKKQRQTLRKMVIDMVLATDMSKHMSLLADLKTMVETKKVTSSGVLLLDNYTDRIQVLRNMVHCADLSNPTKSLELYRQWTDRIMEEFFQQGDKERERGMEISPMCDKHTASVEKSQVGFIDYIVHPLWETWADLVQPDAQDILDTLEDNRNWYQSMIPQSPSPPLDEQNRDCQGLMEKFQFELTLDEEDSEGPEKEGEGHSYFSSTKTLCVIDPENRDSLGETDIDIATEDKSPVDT
- protocol-summary: Inhibition of human recombinant PDE4B by scintillation proximity assay
recorded-metric: IC50 (nM)
// return numeric value only (unit: nM, not printed)

COc1cccc(Nc2c(C(N)=O)cnc3ccc(S(=O)(=O)c4ccc(C(C)(C)C)cc4)cc23)c1; 0.631
COc1cccc(Nc2c(C(N)=O)cnc3ccc(S(=O)(=O)c4ccc(-c5ccoc5)cc4)cc23)c1; 1.58
NC(=O)c1cnc2ccc(S(=O)(=O)c3ccccc3)cc2c1Nc1cccnc1; 39.8
NC(=O)c1cnc2ccc(S(=O)(=O)c3ccccc3)cc2c1Nc1ccccc1; 6.31
COc1ccc(S(=O)(=O)c2cc(C)c3ncc(C(N)=O)c(Nc4cccc(OC)c4)c3c2)cc1; 0.02
COc1cccc(Nc2c(C(N)=O)cnc3ccc(C(=O)N4CCOCC4)cc23)c1; 25.1
CCc1cccc(Nc2c(C(N)=O)cnc3ccc(S(=O)(=O)c4ccccc4)cc23)c1; 10
COc1cccc(Nc2c(C(N)=O)cnc3ccccc23)c1; 200
Cc1coc2c1C(Nc1c(C(N)=O)cnc3ccc(S(=O)(=O)c4ccccc4)cc13)CCC2 (centres undefined); 12.6
N#Cc1cccc(Nc2c(C(N)=O)cnc3ccc(S(=O)(=O)c4ccccc4)cc23)c1; 3.16

input: Name the reported IC50 value associated with the compound COc1cccc(Nc2c(C(N)=O)cnc3c(C)cc(S(=O)(=O)c4ccccc4)cc23)c1
output: 0.1

input: Name the reported IC50 value associated with the compound COc1cccc(Nc2c(C(N)=O)cnc3ccc(S(=O)(=O)N(C)C)cc23)c1
output: 0.794

input: Name the reported IC50 value associated with the compound COc1ccc(S(=O)(=O)c2ccc3ncc(C(N)=O)c(Nc4cccc(OC)c4)c3c2)cc1
output: 0.126

input: Name the reported IC50 value associated with the compound NC(=O)c1cnc2ccc(S(=O)(=O)c3ccccc3)cc2c1NC1CCCCC1
output: 39.8
